# Test system: soybean rust fungus (Phakopsora pachyrhizi) having an amino acid substitution of F129L in a mitochondrial cytochrome b protein
# Test Protocol: Leaf disc test: preventive spray, then inoculation with soybean rust fungus spores, lesion area investigated
# Format: in vivo
# Stated Conditions: Comparative Test Example 1 (Table A)
Measure Name: Lesion area (%) at the concentration of 50 ppm

Molecule	Observed Value
CNC(=O)/C(=N/OC)c1ccccc1COc1cc(C)ccc1C [Dimoxystrobin, dimoxystrobin, reference compound]	100
Cn1nc(Cl)n(-c2cccc3oc(Cc4ccccc4)nc23)c1=O	10
CO/C=C(/C(=O)OC)c1cccc2ccc(-c3ccccc3)cc12	0
CO/C=C(/C(=O)OC)c1cccc2oc(-c3ccccc3)nc12	10
Cn1nc(Cl)n(-c2cccc3oc(COc4ccccc4)nc23)c1=O	0
CO/C=C(/C(=O)OC)c1ccccc1Oc1cc(Oc2ccccc2C#N)ncn1 [Azoxystrobin, azoxystrobin, reference compound]	100
CNC(=O)/C(=N/OC)c1ccccc1Oc1ccccc1 [Metominostrobin, metominostrobin, reference compound]	100
CO/C=C(/C(=O)OC)c1cccc2sc(-c3ccccc3)nc12	30
